Source of measurements: the DeepSol protein solubility set

- procedure_summary: soluble on expression in E. coli; label from the status in PepcDB or PDB records
readout_name: soluble on expression in E. coli

- MGSDKIHHHHHHMSLSAEQIVEYRAFAEQLADAAAAAIAPYFRASLDVEDKGGRLYDPVTVADKAAEDAMRELIQARYPEHGILGEEAGIAVGSSPLTWVLDPIDGTRAFITGLPLWGTLIALNDGARPVLGVMNQPFTGERFVGTPAGAWRSGTPLKTRACADLSAATLMCTTPDMFDTAERKAAFEAVAGKARLMRYGGDCYAYCMLASGFVDVIVEASLQPYDVQALMPIIEGAGGVITAWDGSSAQDGGCVVACGDPVLHAQVLEMLRHAM: not soluble
- MAHHHHHHMLRIYDPKETVAFYEKNFGMINIHTYHFDEYNFSLYFLITPPYDEEERKKIPPPNTIESEQYLWNLKTVCLELTHNHNSTEKLSNGNNDNDRGFGHIAFNCQDVTQFCDYLFKEKKVNFHKLPHETKMKSIGFALDPNDYWIEIVKRSSEVKWKDKEGIANFSQTMIRVKNPEKSLYFYLHILGMKLVHIKHASDFSLYFLKSPYVEGNKGGDISTKEKPEGEQNLPPYNFEELKKAYQSDEDYENLKTSWEPVLELTHNHGTENDDQFAYHNGNTEPRGFGHIGFLVDDLANYCQELEKLGIPFKKKIHEGQMNNIAFVYDPDNYLVELIQRGTTFGRN: not soluble

====

- procedure_summary: soluble on expression in E. coli; label from the status in PepcDB or PDB records
readout_name: soluble on expression in E. coli

Examples with their reported soluble on expression in E. coli follow.
- MAHHTKETMELIKELVSIPSPSGNTAKIINFIENYVSEWNVETKRNNKGALILTVKGKNDAQHRLLTAHVDTLGAMVKEIKPDGRLSLSMIGGFRWNSVEGEYCEIETSSGKTYTGTILMHQTSVHVYKDAGEAKRDEKNIEVRIDERVFSADEVRELGIEVGDFVSFDPRVQITESGYIKSRHLDDKVSVAILLKLIKRLQDENVTLPYTTHFLISNNEEIGYGGNSNIPEETVEYLAVDMGALGDGQASDEYTVSICAKDSSGPYHYALRKHLVELAKTNHIEYKVDIYPYYGSDASAAIRAGFDVKHALIGAGIDSSHAFERTHESSIAHTEALVYAYVMSNLIEE: soluble
- MGSDKIHHHHHHMRAVSIVGLGWLGLTLARHLKNLGWKVKGTKRTHEGVEQMRLIRLEAYHLELTPDINADPDDLTALLSVDALVINIPPSQYFFHLQHYVQGVKNLVNEALLNGLQHIIFISSTSVFPDVSGEFDEQSQIVPQSEMSKALLEIEQWLFELKDVDCDIIRFGGLVGEDRHPVYSLAGKDELSAGNMPINLVHVDDCARAIQLLLETPSSQRLYHLVAPQHPTRAEYYSQIAEKLALEAPHFICSEQDPRRVILANKICRELSFVYQCPDPYLMLFERK: not soluble
- HHHHHHTDPALRAAQQTPLYEQHTLCGARMVDFHGWMMPLHYGSQIDEHHAVRTDAGMFDVSHMTIVDLRGSRTREFLRYLLANDVAKLTKSGKALYSGMLNASGGVIDDLIVYYFTEDFFRLVVNSATREKDLSWITQHAEPFGIEITVRDDLSMIAVQGPNAQAKAATLFNDAQRQAVEGMKPFFGVQAGDLFIATTGYTGEAGYEIALPNEKAADFWRALVEAGVKPCGLGARDTLRLEAGMNLYGQEMDETISPLAANMGWTIAWEPADRDFIGREALEVQREHGTEKLVGLVMTEKGVLRNELPVRFTDAQGNQHEGIITSGTFSPTLGYSIALARVPEGIGETAIVQIRNREMPVKVTKPVFVRNGKAVAGLCGR: soluble
- SLKVKAINLYTYKEPFKSPISTPKVKLTHRESLFTEIVTYSGETYYGECNAFLTNWYDKETILTVVNRLRQWIPQVLHKDMTSFDSWLPYLNQMNDAPAARSMVVMAVYQMYNDLHDFEVQYGATVSGLTNSQIETLLETRPKRIKLKWSTSLIKDLETIRLLNFDCDIAIDANESLTKPSFLQLANVNTSDIIYIEEPFKILEDLNDIDMSIFPRIAIDEKALSIEKIQSIIQQYPIQVVVLKPFRLGGIDRMLNAMKILKEKNIRFVVGGMYEFGLSRYFTAMLAKEGSYPGDITPHGYYFSNDIVETSGILKGGMIYFTPPKVKRSLLNKV: soluble
- MGSDKIHHHHHHMRENKVVYGLIGYGGMGRWHTEILSNVPEAVIGGIYDIKEEKREEAKAKGFSVYETEEAMLADSDIDVVLIATPNDCHKPIAIRAMHAGKNVISEKPVTLSSADLLEMEKVAKETGKLFTVHQNRRWDDDFLIIKKLVEEQKLGHVFRIESRVHGSRGIPGDWRKEKVHGGGMVLDWGVHLLDQILYMYGDRKIETVYASLTNITNQEVDDGFTAILTFEGGTEVLVEVGTNNYISLPRWYVLGKDGTAVIRDWQLTGEIIRKTGKTEETVIPVKTAAGLTKTMAPRREDTIVKEDLPKVSGDIADFHRNVVAVIRDGAEPEIKLFQVMRVMKLMEAIFQAAETKQVIEFQDQV: not soluble
- MGSDKIHHHHHHMQVTEQMKLDLARDGAFVARGLFSPEGLKRMREAFDYGIEHPSPQHGYIFKGTPDEHFNDYGNIANRDVHIATIKALVLDEFVASLWDSQHVWFKGEEIFIKKGGKAGRSPWHQDNSYTPVSGPQMLNIWTCFERIPRKNALEVVRGSHLGIQYNGNSYTDPGKPTKPLWLNTDWPDLPDIEAERAKDPNSWDVLSWDLELGDALVFHSGALHGGAPVSADCPDRHTLVYRFFGDKLFYRPLPTGGCNYPYDISALNDPSLMPGEPFRAAWCTQLR: not soluble
- MRDGEGIWGRGRTGGHAHPKEAMHTTFFILGGTMLIGVISDTHLYDRAFELPKAVFDEFSNVDLIIHCGDVTDKEILDSLKDLAKVVAVKGNMDYLNLPRKEILEINDIKIGVIHGDVVYPRGDRLKLRLLGKEMGVDVLISGHTHTPFIDDCRDILLLNPGSPTVPRCPLKSIMKLSVEDKLEAKLIPIEE: soluble
- MGSDKIHHHHHHMASSGTEHDAMRARLVDVAQAIVEERGGAGLTLSELAARAGISQANLSRYFETREDLMEAIADYWFHPMVEIMEDVLASDLPPRRKMYEFFARRFVVMRRKWEADPVKLQTYIEVGNDYFEQVRSYIDLADHYLGEIIGEAMSDGAFSGLEVDETISLVNQMCAPYCALNTMTTFMERLSEDKLARIVDAVFDGLSAQDRGARSLTGLRAA: not soluble

Form field soluble on expression in E. coli, entry `MAHHHHHHMGISVSHLLERLRTLFEPLEVVCALQLKCLLETRQLDYCNVSLNELQRAEAGLRSLLVDHPLDIEVGAQWEHLEDELQRLHVRFSVPVPTFRLLVRRSARALRSAVRALGWDGKIQRRLWQEEGEEPRDDGVQEPLRAFDAGGLSTCTVDEICNEGGVQDRSAAVFSAVAKLYHHRLALGAQSLVAAERLGPALGANVRAASRVPSLTLPNSAADPTHPRFKADLYAVSPDALSCTAARREAYAAS` : not soluble

// sample `GERQVYRKIRDRASYAFALISVAAVVRMEEGRIATARLAFGGLAHKPWRDPEVEACLEGETPSDDLFDRAADRLLQSARGQGENDFKIPLTRRALTAALREATG` , its soluble on expression in E. coli was not soluble

====

- procedure_summary: soluble on expression in E. coli; label from the status in PepcDB or PDB records
readout_name: soluble on expression in E. coli

• GQEVTVSCAEGDTGFIYAGLLDVQITDVALDNMPKAPVKVMMNVGNPELAFSFANLPSEGIGLARMEFIINRQIGIHPKALLEFDKQDDELKAEITRRIAGYASPVDFYVDKIAEGVATLAASVYPRKTIVRMSDFKSNEYANL = not soluble
• MGSDKIHHHHHHMPTRSTPTERQKRLGAELRKMRLAAGAPTEYAAGLLGIDRTRLSNMESGIRPFSPDRVRTLACNYSCTDDGYIEALVAMTSTKERGWWERHRGILPSGLLDIAELEWHATRVRTAQVMHAPGLLQTEDYARGVFTAVLPPLTRLEVELRVAHRMERQQVLERPSPLPYIAYVHEAVLRMPYGGTEATQQQLKHLCSQSERENIEVRVIPTSTGGFPGAGHALLYADGAVPQLDTVQLDSAHGPEFTHADAQLTKYRSHLNWMDGAAMTSAASRDLIRKIARDL = not soluble

====

- procedure_summary: soluble on expression in E. coli; label from the status in PepcDB or PDB records
readout_name: soluble on expression in E. coli

Some sequences with recorded soluble on expression in E. coli:
• MNILLLDGGKAFGHSHGGLNRTLHKKAKEVLTALGHNVQETVIDAGYDVEAEIEKFVWMDAVIWQMPGWWMHEPWTVKKYIDEVLTAGHGKLYQSDGRHSVNPTEGYGTGGLLQGKKHMISLTWNAPIEAFTREGDFFEGKGVDVLYMHFHKANEFLGMTRLPTFLCNDVVKNPQVEKYLADYQAHLEKVFG = not soluble
• LITMNYNSPTIGMHQNLTIILPEDVTFFDSSTTAKHLKSMLLLHGLSSDETTYIRYTSIERYANEHQLAIIMPNVDHSGYANMVYGHSYYDYILEIYEYVHQILPLSRKREDNFIAGHSMGGYGTIKFALTQSDKFAKAAPLSAVFEAQRFIDLDWTDFSPQSITGNNTQIKGTELDTYYLLDQAIDANVDIPELFIMCGKEDFLYHDNLQFIETLNKKGVSYKFEDGPGNHDYAYWDRAIKRAIEWFVQ = not soluble
• MGSDKIHHHHHHMTRILLRNKLDECLAAWQKAGFSVLAPVKRHEMSCFGEVQKSGDMALDLVLTERTIKDQFFPQTEPLIKYRIGKQQIDSETMTPPEKKRVFFGVRPCDASGLAIDDPLFGWDYKDDYWFRRREKSVIVTIACAQADDFCMCTSVKLSPDSTKGADVMLRPLSDGSGWQVEAVSDRGTALVDTVSSLLQESSAEAAPVPQVAEKFDVEKVMEWLADKENFESQFWKDIALRCVGCGSCTFLCPTCHCFDIQDEGDTYQGIRRKNWDSCSFPLFTMHTSGHNPRNTQSTRWRQRIMHKFNYYRGKFGVNSCSGCGRCTRQCPVDMGITETLQAITNLPR = not soluble
• MGSDKIHHHHHHMSEVYRQNPKVEAIILAGSVARKLEDEHSDIELHILWSMPPEDEDRKGPINYIGGTILSYHPYEEEEWSETYLTKEGIKLEISNFLTETVEKVIEDVVVQYDISYEKQCIVSSIHDGASLYGEEKVHELKDRVLAYPEDLAKRMISENLWLSNRWHNREALLKRKDWLMLYDVICEAQRNIFGVLFGLNKMYVHHPAFKWMPYNVERMIIKPENLYERMTNTLIGKPEYSIQELGVLIEELLQLVEHHAPELHIAEQQKRIQYAK = not soluble
• DRCYNCGGLDHHAKECKLPPQPKKCHFCQSISHMVASCPLKAQQGPSAQG = soluble

response.value for `MKILPLALFIIPFLAGCGANNTPPQTPIPGEKTSAKLRTLETGAAAIQSRPPVDAISTYLDGFHFYSGDKNGQMEAHHYVTVLNEDVMQAVIYDGNTKNARLMGVEYIISERLFKTLPPEEKKLWHSHQYEVKSGSLVAPGLPQVADKALMSKIVNTYGKTWHTWHTDRDKTLPMGIPALMMGFTGDGQLDPALLADRDRRLGIDTQAIKRERQDLPEHPVVKGANAWEQGEVIQLQRVQGSGEHGRGDTAHFGTSEQSRQLEHHHHHH` (field: soluble on expression in E. coli) = soluble
